Assay: qHTS RealTime-Glo MT Cell Viability Assay in HepG2 cells - 32 hour (AID 1224877); note: % is set by controls: 0 for no effect and ±100 for the full control effect; nearly all actives have a fitted effect of over 55% in size
Conditions: RealTime-Glo luminescence; series mostly up to 76.8 µM
Source text: U.S. Tox21 Program National Center for Advancing Translational Sciences [NCATS] NIH Chemical Genomics Center [NCGC] U.S. Environmental Protection Agency [EPA] National Institutes of Environmental Health Sciences [NIEHS] National Toxicology Program [NTP] U.S. Food and Drug Administration [FDA] Tox21 Assay Overview: Measure of cell viability is critical in the cell-base assay. Analysis of cell viability is necessary for the characterization of cell responses to cytotoxic drugs and environmental stress. […]
Inconclusive results are not listed. The source made the active and inactive calls. Calls come from the whole dose curve; as a rule, active = well fitted cell-killing curve with a large enough effect in the repeat runs; inconclusive = weak or mixed curves; inactive = flat fitted curve, though single readings scatter.
endpoint-name: activity change, negative = cytotoxic

Qu. Tell me activity change, negative = cytotoxic reported for COc1cc(C(C)C)c2c(c1)S(=O)(=O)N(COc1cc(=O)n3cccc(OCCN4CCCCC4)c3n1)C2=O
Ans. -2.94% [at 15.8 µM] (inactive)

Qu. Tell me activity change, negative = cytotoxic reported for O=C=NCc1cccc(CN=C=O)c1
Ans. 0.5% [at 15.8 µM] (inactive)

Qu. Tell me activity change, negative = cytotoxic reported for O=S(=O)(O)c1cc(S(=O)(=O)O)c2ccc3c(S(=O)(=O)O)cc(S(=O)(=O)O)c4ccc1c2c43
Ans. 5.28% [at 15.8 µM] (inactive)

Qu. Tell me activity change, negative = cytotoxic reported for CCN1CCN(c2cc(-c3ccc(F)cc3)c3c(n2)CCCCCC3)CC1
Ans. -10.2% [at 15.8 µM] (inactive)

Qu. Tell me activity change, negative = cytotoxic reported for S=C(SSSSSSC(=S)N1CCCCC1)N1CCCCC1
Ans. -24.5% [at 15.8 µM] (inactive)

Qu. Tell me activity change, negative = cytotoxic reported for O=S(O)O
Ans. 4.15% [at 15.8 µM] (inactive)

====

experiment: qHTS assay to identify small molecule antagonists of the estrogen receptor alpha (ER-alpha) signaling pathway using the BG1 cell line in the presence of 0.1 nM 17-beta-estradiol - cell viability counter screen (AID 1259241); conditions: VM7Luc4E2 (BG1) viability, CellTiter-Fluor protease, 22 h, 0.1 nM estradiol agonist added; series mostly up to 92.4 µM; note: nearly all actives have a fitted effect of over 40% in size
Records with an inconclusive call do not appear. Active and inactive are the calls of the source. Calls come from the whole dose curve; as a rule, active = well fitted cell-killing curve with a large enough effect in the repeat runs; inconclusive = weak or mixed curves, or effect the other way; inactive = flat fitted curve, though single readings scatter.
Answer with one of the outcomes given here: active, inactive

Qu. Recorded test call requested for O=c1cccc[nH]1
Ans. inactive

Qu. Recorded test call requested for OCCN1CN(CCO)CN(CCO)C1
Ans. inactive

Qu. Recorded test call requested for CC(=O)OC(OC(C)=O)c1ccc([N+](=O)[O-])o1
Ans. active

Qu. Recorded test call requested for CCCCCCOc1cc(C)c(O)c(C)c1C
Ans. inactive

Qu. Recorded test call requested for CCCCNc1c(C(=O)OCC)c(C)nc2c1cnn2CC
Ans. inactive

Qu. Recorded test call requested for CCOC(OCC)C(=O)c1ccccc1
Ans. inactive

Qu. Recorded test call requested for CC(C)(C)c1cc(/C=C2\SC(=N)NC2=O)cc(C(C)(C)C)c1O
Ans. inactive

Qu. Recorded test call requested for OCCC(O)CO (stereo not given)
Ans. inactive

Qu. Recorded test call requested for CCC(=O)OCCc1ccccc1
Ans. inactive

Qu. Recorded test call requested for O=C(Nc1ccc(Cl)cc1)Nc1ccc(Cl)c(C(F)(F)F)c1
Ans. inactive

Qu. Recorded test call requested for C/C=C/CO
Ans. inactive

Qu. Recorded test call requested for CC(=O)OC1CCCCC1
Ans. inactive

Qu. Recorded test call requested for NCCCC(O)(P(=O)(O)O)P(=O)(O)O
Ans. inactive

Qu. Recorded test call requested for CCCCCCCC(=O)OCC
Ans. inactive

Qu. Recorded test call requested for COc1cccc(OC)c1O
Ans. inactive

====

experiment: qHTS assay to identify small molecule antagonists of the vitamin D receptor (VDR) signaling pathway - cell viability counter screen (AID 743225); conditions: VDR-bla HEK293T viability, CellTiter-Glo luminescence, 16 h; series mostly up to 61 µM; note: nearly all actives have a fitted effect of over 50% in size
Records with an inconclusive call do not appear. Activity calls are given as the source filed them. Calls come from the whole dose curve; as a rule, active = well fitted cell-killing curve with a large enough effect in the repeat runs; inconclusive = weak or mixed curves, or effect the other way; inactive = no such curve, though single readings can be large or run the other way.
Answer with one of the outcomes given here: active, inactive

Qu. Recorded test call requested for COc1ccc2sc(C(=O)Nc3nnn[nH]3)c(OC(C)C)c2c1
Ans. inactive

Qu. Recorded test call requested for CC(C)(C)CC(C)(C)c1ccccc1O
Ans. active

Qu. Recorded test call requested for CC(=O)Nc1ccc(O)cc1
Ans. inactive

Qu. Recorded test call requested for COC(=O)NCCC[Si](OC)(OC)OC
Ans. inactive

Qu. Recorded test call requested for CCCCCCOc1cc(C)c(O)c(C)c1C
Ans. active

Qu. Recorded test call requested for Cc1cc2c(C(C)C)c(O)c(O)c(C=O)c2c(O)c1-c1c(C)cc2c(C(C)C)c(O)c(O)c(C=O)c2c1O
Ans. active

Qu. Recorded test call requested for COC(=O)[C@]1(C)CCC[C@@]2(C)[C@H]1CC=C1C=C(C(C)C)CC[C@@H]12
Ans. inactive

Qu. Recorded test call requested for O=S(=O)(O)CCCN1CCOCC1
Ans. inactive

Qu. Recorded test call requested for CCCCCCCC/C=C\CCCCCCCC(=O)NCc1ccc(O)c(OC)c1
Ans. active

Qu. Recorded test call requested for Cc1c(C(=O)O)cccc1[N+](=O)[O-]
Ans. inactive

Qu. Recorded test call requested for O=C(Nc1ccc(Cl)c(Cl)c1)c1cc(Cl)cc(Cl)c1O
Ans. active

Qu. Recorded test call requested for CCOC(=O)[C@@](C)(N)Cc1ccc(O)c(O)c1
Ans. inactive

====

test: qHTS assay to identify small molecule antagonists of the glucocorticoid receptor (GR) signaling pathway - cell viability counter screen (AID 720693); details: GR-bla HeLa viability, CellTiter-Glo luminescence, 18 h, with 5 nM dexamethasone present; series mostly up to 58.5 µM; note: % is set by controls: 0 for no effect and ±100 for the full control effect; nearly all actives have a fitted effect of over 55% in size
Inconclusive results are not listed. The source made the active and inactive calls. Calls come from the whole dose curve; as a rule, active = well fitted cell-killing curve with a large enough effect in the repeat runs; inconclusive = weak or mixed curves, or effect the other way; inactive = no such curve, though single readings can be large or run the other way.
endpoint-name: outcome

Observe how each entry below is paired with its result.
COc1cccc(CCc2ccccc2OCC(CN(C)C)OC(=O)CCC(=O)O)c1 (stereo unspecified) :: inactive
C=CC(C)(CCC=C(C)C)OC(=O)/C=C/c1ccccc1 (stereo unspecified) :: inactive
CN(C)CCOC(c1ccccc1)c1ccccc1 (tested in a mixture with another compound) :: inactive
CCc1ccc(O)c(C(C)(C)C)c1 :: inactive
O=C(O)Cc1ccc(OCCNC[C@H](O)c2ccccc2)cc1 :: inactive

Turning to the following compound.
Qu. Tell me outcome reported for NC(=O)C(=O)N/N=C/c1ccc([N+](=O)[O-])o1
Ans. inactive

====

experiment: A CellTox Green Cytotoxicity Assay to monitor cytotoxicity in HepG2 cells - 8 hour (AID 1224890); conditions: CellTox Green fluorescence; series mostly up to 76.8 µM; note: nearly all actives have a fitted effect of over 45% in size
Records with an inconclusive call do not appear. Calls of active or inactive are those of the source. Calls come from the whole dose curve; as a rule, active = well fitted activation curve with a large enough effect in the repeat runs; inconclusive = weak or mixed curves; inactive = flat fitted curve, though single readings scatter.
Answer with one of the outcomes given here: True for active, False for inactive

Qu. Recorded test call requested for C=CC(C)(CCC=C(C)C)OC(=O)/C=C/c1ccccc1 (stereo unspecified)
Ans. True

Qu. Recorded test call requested for C=CC(=O)OCCC#N
Ans. False

Qu. Recorded test call requested for CCN(CC)CCCN(c1ccccc1)C1Cc2ccccc2C1
Ans. False

Qu. Recorded test call requested for CC(C)=CC1CC(C)CCO1 (stereo unspecified)
Ans. False

Qu. Recorded test call requested for CCc1c(Br)c(Br)c(Br)c(Br)c1Br
Ans. False

Qu. Recorded test call requested for CC(C)=C1CC[C@@H](C)CC1=O
Ans. False

Qu. Recorded test call requested for C=C(C)C(=O)OCCC[Si](Cl)(Cl)Cl
Ans. False

Qu. Recorded test call requested for CC(C)(C)c1cc(CCC(=O)NCCCCCCNC(=O)CCc2cc(C(C)(C)C)c(O)c(C(C)(C)C)c2)cc(C(C)(C)C)c1O
Ans. False

Qu. Recorded test call requested for COc1ccc2sc(C(=O)Nc3nnn[nH]3)c(OC(C)C)c2c1
Ans. False

Qu. Recorded test call requested for Oc1c(Br)cc(Br)c2cccnc12
Ans. False

Qu. Recorded test call requested for CCOC(OCC)C(=O)c1ccccc1
Ans. False

Qu. Recorded test call requested for CCOC(=O)C1=C(C)NC(C)=C(C(=O)OCC)C1c1ccccc1/C=C/C(=O)OC(C)(C)C
Ans. False

Qu. Recorded test call requested for COc1ccccc1OCCNCC(O)COc1cccc2[nH]c3ccccc3c12 (stereo unspecified)
Ans. False

Qu. Recorded test call requested for CCC(C)C(=O)OC (stereo unspecified)
Ans. False

Qu. Recorded test call requested for Cn1cccc1
Ans. False

Qu. Recorded test call requested for CCCC(=O)OCC(COC(=O)CCC)OC(=O)CCC
Ans. False

Qu. Recorded test call requested for O=C(O)c1cccc(Cl)n1
Ans. False

Qu. Recorded test call requested for CC(=O)O[C@@H]1C[C@@H]2CC[C@@]1(C)C2(C)C
Ans. False

Qu. Recorded test call requested for Cc1cccc(Br)c1
Ans. False

Qu. Recorded test call requested for Oc1ccc(-c2ccc(O)cc2)cc1
Ans. False

Qu. Recorded test call requested for CCCSS/C(CCO)=C(\C)N(C=O)Cc1cnc(C)nc1N
Ans. False
